These measurements were taken from patent US20250302815A1.

molecular target: PTPN2 (B16F10.4 cells) (Mus musculus); construct: HiBiT; host or cells: B16F10.4; assay: HiBiT Degradation B16F10.4 PTPN2; assay type: cell-based; conditions: 24.0 hours
Give DC50 for every item shown.

(Q) Give measured DC50 for O=C(O)COc1c(C(=O)O)sc(-c2cccc(NC3CCN(S(=O)(=O)Cc4cccc(NC(=O)CCOCCOCCCc5cccc6c5C(=O)N(C5CCC(=O)NC5=O)C6=O)c4)CC3)c2)c1Cl (centres unmarked) (PTPN2 (B16F10.4 cells) (Mus musculus)).
(A) ≥ 1000 nM

(Q) Give measured DC50 for CC(Nc1cccc2c1CN(C1CCC(=O)NC1=O)C2=O)C(=O)NCCCCCCC(=O)Nc1cccc(CS(=O)(=O)N2CCC(Nc3cccc(-c4sc(C(=O)O)c(OCC(=O)O)c4Cl)c3)CC2)c1 (centres unmarked) (PTPN2 (B16F10.4 cells) (Mus musculus)).
(A) ≥ 1000 nM

(Q) Give measured DC50 for CC(C)(c1cccc(NC(=O)CCCCCCNC(=O)CNc2ccc3c(c2)CN(C2CCC(=O)NC2=O)C3=O)c1)S(=O)(=O)N1CCC(Nc2cccc(-c3sc(C(=O)O)c(OCC(=O)O)c3Cl)c2)CC1 (centres unmarked) (PTPN2 (B16F10.4 cells) (Mus musculus)).
(A) ≥ 1000 nM

(Q) Give measured DC50 for CC1(C)C[C@@H](Nc2cccc(-c3sc(C(=O)O)c(OCC(=O)O)c3Cl)c2)CCN1S(=O)(=O)Cc1cc(NC(=O)N2CCC(c3ccc4c5c(cccc35)C(=O)N4C3CCC(=O)NC3=O)CC2)ccc1F (some centres unmarked) (PTPN2 (B16F10.4 cells) (Mus musculus)).
(A) < 50 nM

(Q) Give measured DC50 for C[C@@H]1CN(C(=O)Nc2cccc(CS(=O)(=O)N3CC[C@H](Nc4cccc(-c5sc(C(=O)O)c(OCC(=O)O)c5Cl)c4)CC3(C)C)c2)CCN1c1ccc2c(c1)n(C)c(=O)n2C1CCC(=O)NC1=O (some centres unmarked) (PTPN2 (B16F10.4 cells) (Mus musculus)).
(A) 50 to 200 nM

----------
target: PTPN2 (B16F10.4 cells) (Mus musculus, UniProt Q06180); construct: HiBiT; host or cells: B16F10.4; assay: HiBiT Degradation B16F10.4 PTPN2; type: cell-based; details: 24.0 hours
Sequence (Q06180 whole entry): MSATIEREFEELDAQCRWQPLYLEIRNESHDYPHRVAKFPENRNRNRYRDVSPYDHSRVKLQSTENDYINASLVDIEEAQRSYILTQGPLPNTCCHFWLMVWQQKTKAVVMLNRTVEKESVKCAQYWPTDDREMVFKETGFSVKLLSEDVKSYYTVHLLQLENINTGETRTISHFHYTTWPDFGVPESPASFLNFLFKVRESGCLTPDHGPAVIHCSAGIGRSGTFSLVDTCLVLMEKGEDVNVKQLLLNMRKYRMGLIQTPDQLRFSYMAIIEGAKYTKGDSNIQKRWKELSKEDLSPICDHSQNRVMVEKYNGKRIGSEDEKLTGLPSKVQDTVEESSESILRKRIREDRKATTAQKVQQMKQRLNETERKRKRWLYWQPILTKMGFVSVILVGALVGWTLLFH
Give DC50 for every item shown.

(Q) State its DC50 for this molecule: O=C(O)COc1c(C(=O)O)sc(-c2cccc(NC3CCN(S(=O)(=O)Cc4cccc(NC(=O)N5CCC(Oc6cccc7c6CN(C6CCC(=O)NC6=O)C7=O)CC5)c4)CC3)c2)c1Cl (stereo not drawn) [Example 65]
(A) 200 to 1000 nM

(Q) State its DC50 for this molecule: Cn1c(=O)n(C2CCC(=O)NC2=O)c2ccc(N3CCC(CCNC(=O)Nc4cccc(CS(=O)(=O)N5CC[C@H](Nc6cccc(-c7sc(C(=O)O)c(OCC(=O)O)c7Cl)c6)CC5(C)C)c4)CC3)cc21 (stereo partly drawn) [Example 174]
(A) 50 to 200 nM

(Q) State its DC50 for this molecule: CC1(C)C[C@@H](Nc2cccc(-c3sc(C(=O)O)c(OCC(=O)O)c3Cl)c2)CCN1S(=O)(=O)Cc1cccc(NC(=O)N2CCC(c3ccc4c(c3)oc(=O)n4C3CCC(=O)NC3=O)CC2)c1 (stereo partly drawn) [Example 68]
(A) 50 to 200 nM
